- METHOD: Serum stability in RPMI1640 medium containing 10% fetal bovine serum
- Assay type: in vitro ADME
- RECORDED CONDITIONS: bovine, 4 hr, read-out: Relative Percent Remaining at 4 hr

{"MOLECULE": "CC[C@H](C)[C@H](NC(=O)[C@H](Cc1ccc(O)cc1)NC(=O)[C@H](CCC(=O)O)NC(C)=O)C(=O)N[C@@H](Cc1ccc(O)cc1)C(=O)NCC(=O)N[C@@H](CO)C(=O)N[C@@H](Cc1ccccc1)C(=O)N[C@@H](CCCCN)C(=O)NCCCOCCOCCOCCCNC(=O)O[C@H]1C(=O)[C@@]2(C)[C@H]([C@H](OC(=O)c3ccccc3)[C@]3(O)C[C@H](OC(=O)[C@H](O)[C@@H](NC(=O)c4ccccc4)c4ccccc4)C(C)=C1C3(C)C)[C@]1(OC(C)=O)CO[C@@H]1C[C@@H]2O", "remaining at 4 h, 10 μM, %": 95}
{"MOLECULE": "CC(=O)O[C@H]1C(=O)[C@@]2(C)[C@H]([C@H](OC(=O)c3ccccc3)[C@]3(O)C[C@H](OC(=O)[C@H](O)[C@@H](NC(=O)c4ccccc4)c4ccccc4)C(C)=C1C3(C)C)[C@]1(OC(C)=O)CO[C@@H]1C[C@@H]2O [Paclitaxel, reference compound]", "remaining at 4 h, 10 μM, %": 73}
{"MOLECULE": "CC[C@H](C)[C@H](NC(=O)[C@H](Cc1ccc(O)cc1)NC(=O)C(C)(C)C)C(=O)N[C@@H](Cc1ccc(O)cc1)C(=O)NCC(=O)N[C@@H](CO)C(=O)N[C@@H](Cc1ccccc1)C(=O)N[C@@H](CCCNC(=N)N)C(=O)NCCCOCCOCCOCCCNC(=O)O[C@H]1C(=O)[C@@]2(C)[C@H]([C@H](OC(=O)c3ccccc3)[C@]3(O)C[C@H](OC(=O)[C@H](O)[C@@H](NC(=O)c4ccccc4)c4ccccc4)C(C)=C1C3(C)C)[C@]1(OC(C)=O)CO[C@@H]1C[C@@H]2O [Pv-YIYGSFR-PEG(13)-10Ca-PXL]", "remaining at 4 h, 10 μM, %": 73}
{"MOLECULE": "CC[C@]1(O)C[C@@H]2CN(CCc3c([nH]c4ccccc34)[C@@](C(=O)OC)(c3cc4c(cc3OC)N(C)[C@H]3[C@@](O)(C(=O)OC)[C@H](OC(C)=O)[C@]5(CC)C=CCN6CC[C@]43[C@@H]65)C2)C1 [Vinblastine, reference compound]", "remaining at 4 h, 10 μM, %": 95}

====

- TESTED ON: Human Src (Homo sapiens)
- Construct: purchased Upstate (Charlottesville, Va.) 14-326
- METHOD: Src kinase assay (PKLight ATP utilization, substrate phosphorylation as % of parent peptide)
- Type: biochemical
Primed or numbered codes have the meaning given here. * marks the point of attachment. 10Ca = carbamate linkage conjugating the peptide-PEG to paclitaxel at C10; 10Ca‑PXL = paclitaxel conjugated at C10 via a carbamate; 3Am‑VBL = vinblastine (VBL) conjugate; PEG(13)″ = PEG(13) linker; PEG(11) = PEG(11) linker; PEG(29) = PEG(29) linker; 3Am = not defined here; Cbz = O=C(OCc1ccccc1)*; PEG(13) = PEG13 linker; Piv = CC(C)(C)C(=O)*; OBn = c1ccc(CO*)cc1; VBL = vinblastine; PXL = paclitaxel

{"SUBSTANCE": "Pv-EYIYGSFR-PEG(13)-10Ca-PXL (Piv-EYIYGSFR-{PEG(13)-10Ca‑PXL})", "Average src kinase activity": "B (B=20-40)"}
{"SUBSTANCE": "H-GIYWHHY-PEG(29)-3Am-VBL (H-GIYWHHY-{PEG(29)-3Am-VBL}; reading uncertain)", "Average src kinase activity": "C (C>40)"}
{"SUBSTANCE": "H-YIYGSFK-PEG(29)-3Am-VBL x 2TFA (H-YIYGSFK-{PEG(29)-3Am-VBL}; reading uncertain; also: 2TFA salt)", "Average src kinase activity": "A (A<20)"}
{"SUBSTANCE": "Pv-YIFGSFR-PEG(13)-10Ca-PXL (Piv-YIFGSFR-{PEG(13)″-10Ca‑PXL}; also: TFA salt)", "Average src kinase activity": "Zero"}
{"SUBSTANCE": "Ac-EYIyGSFK-PEG(13)-10Ca-PXL (EYIYGSFK; not fully specified)", "Average src kinase activity": "Zero"}
{"SUBSTANCE": "Ac-E(Bzl)YIYGSFK(CBz)-PEG(13)-10Ca-PXL (Ac-E(OBn)YIYGSFK(Cbz)-{PEG(13)-10Ca-PXL})", "Average src kinase activity": "Zero"}
{"SUBSTANCE": "Ac-EYIYGSFR-PEG(11)-3Am-VBL (N-acetyl, PEG11, vinblastine conjugate)", "Average src kinase activity": "B (B=20-40)"}
{"SUBSTANCE": "Pv-E(Bzl)YIYGSFK(CBz)-PEG(13)-10Ca-PXL (Piv-E(OBn)YIYGSFK(Cbz)-{PEG(13)″-10Ca-PXL}; also: TFA salt)", "Average src kinase activity": "A (A<20)"}
{"SUBSTANCE": "CH3O(CH2CH2O)3CH2CH2(C═)YIYGSFH-PEG(11)-3Am-VBL (N-methoxy-PEG acyl; PEG(11); vinblastine conjugate)", "Average src kinase activity": "C (C>40)"}
{"SUBSTANCE": "Ac-EYIYGSFK(CBz)-PEG(13)-10Ca-PXL (Ac-EYIYGSFK(Cbz)-{PEG(13)-10Ca-PXL})", "Average src kinase activity": "B (B=20-40)"}
{"SUBSTANCE": "Ac-YIYGSFK-PEG(13)-10Ca-PXL (N-acetyl; PEG(13) linker; paclitaxel conjugate)", "Average src kinase activity": "C (C>40)"}
{"SUBSTANCE": "Pv-EYIYGSFR-PEG(11)-3Am-VBL (Piv-EYIYGSFR-{PEG(11)-3Am‑VBL})", "Average src kinase activity": "C (C>40)"}
{"SUBSTANCE": "BOC-YIYGSFK(BOC)-PEG(11)-3Am-VBL (N-BOC; BOC side chain; PEG(11); vinblastine conjugate)", "Average src kinase activity": "A (A<20)"}
{"SUBSTANCE": "BOC-YIYGSFR-PEG(11)-3Am-VBL (N-BOC; PEG(11) linker; vinblastine conjugate)", "Average src kinase activity": "B (B=20-40)"}

====

A collection of compounds and their measured remaining at 8 h, 10 μM
- METHOD: Serum stability in RPMI1640 medium containing 10% fetal bovine serum
- Type: in vitro ADME
- RECORDED CONDITIONS: bovine, 8 hr, read-out: Relative Percent Remaining at 8 hr

{"COMPOUND": "CC(=O)O[C@H]1C(=O)[C@@]2(C)[C@H]([C@H](OC(=O)c3ccccc3)[C@]3(O)C[C@H](OC(=O)[C@H](O)[C@@H](NC(=O)c4ccccc4)c4ccccc4)C(C)=C1C3(C)C)[C@]1(OC(C)=O)CO[C@@H]1C[C@@H]2O [Paclitaxel, reference compound]", "remaining at 8 h, 10 μM": "59%"}
{"COMPOUND": "CC[C@]1(O)C[C@@H]2CN(CCc3c([nH]c4ccccc34)[C@@](C(=O)OC)(c3cc4c(cc3OC)N(C)[C@H]3[C@@](O)(C(=O)OC)[C@H](OC(C)=O)[C@]5(CC)C=CCN6CC[C@]43[C@@H]65)C2)C1 [Vinblastine, reference compound]", "remaining at 8 h, 10 μM": "95%"}
{"COMPOUND": "CC[C@H](C)[C@H](NC(=O)[C@H](Cc1ccc(O)cc1)NC(=O)OCc1ccccc1)C(=O)N[C@@H](Cc1ccc(O)cc1)C(=O)NCC(=O)N[C@@H](CO)C(=O)N[C@@H](Cc1ccccc1)C(=O)N[C@@H](CCCCN)C(=O)NCCOCCOCCOCCNC(=O)[C@@]1(O)[C@H](O)[C@]2(CC)C=CCN3CC[C@@]4(c5cc([C@@]6(C(=O)OC)C[C@@H]7CN(CCc8c6[nH]c6ccccc86)C[C@](O)(CC)C7)c(OC)cc5N(C)[C@@H]14)[C@@H]32 [CBz-YIYGSFK-PEG(11)-3Am-VBL]", "remaining at 8 h, 10 μM": "102%"}
{"COMPOUND": "CC[C@H](C)[C@H](NC(=O)[C@H](Cc1ccc(O)cc1)NC(=O)[C@H](CCC(=O)O)NC(C)=O)C(=O)N[C@@H](Cc1ccc(O)cc1)C(=O)NCC(=O)N[C@@H](CO)C(=O)N[C@@H](Cc1ccccc1)C(=O)N[C@@H](CCCCN)C(=O)NCCCOCCOCCOCCCNC(=O)O[C@H]1C(=O)[C@@]2(C)[C@H]([C@H](OC(=O)c3ccccc3)[C@]3(O)C[C@H](OC(=O)[C@H](O)[C@@H](NC(=O)c4ccccc4)c4ccccc4)C(C)=C1C3(C)C)[C@]1(OC(C)=O)CO[C@@H]1C[C@@H]2O", "remaining at 8 h, 10 μM": "99%"}
